tested on: Morganella morganii EP-14; experiment: Anti-bacterial activity (MIC), agar dilution; assay type: cell-based; settings: Morganella morganii, EP14, 18 h, about 10^6 CFU/ml, 37° C., read-out: MIC
recorded_endpoint: MIC (mg/L)

Solved cases (3 shown):
CC(=O)NCC[N+](C/C=C/C1=C(C(=O)[O-])N2C(=O)[C@@H](NC(=O)/C(=N\OCF)c3nsc(N)n3)[C@H]2SC1)(CCO)CCO ... 0.05
Nc1nc(/C(=N/OCF)C(=O)N[C@@H]2C(=O)N3C(C(=O)[O-])=C(/C=C/C[N+]4(CC(O)CO)CCOCC4)CS[C@H]23)ns1 (stereo partly drawn) ... 0.1
NC(=O)C[N+]1(C/C=C/C2=C(C(=O)[O-])N3C(=O)[C@@H](NC(=O)/C(=N\OCF)c4nsc(N)n4)[C@H]3SC2)CCOCC1 ... 0.05

a. C[N+](C)(C/C=C/C1=C(C(=O)[O-])N2C(=O)[C@@H](NC(=O)/C(=N\OCF)c3nsc(N)n3)[C@H]2SC1)CC(=O)NCCO
b. C[N+](C)(C/C=C/C1=C(C(=O)[O-])N2C(=O)[C@@H](NC(=O)/C(=N\OCF)c3nsc(N)n3)[C@H]2SC1)[C@H](CC(N)=O)C(N)=O
input: Please state the entry with greater MIC among a and b . Write the label of whichever entry you select.
output: b
(b: 0.1 mg/L, a: 0.05 mg/L)

Provenance of the data: patent US4921850A
